molecular target: T1, human IL-12RB1 overexpressed on 293T cells (Example 2) (human, UniProt P42701 24-662); experiment: FACS, hybridoma supernatant, 293T
T1 construct: whole, on cells
Listed binders paired with reported Fold over parental 293T

| binder | Fold over parental 293T (fold) |
| --- | --- |
| 85801_02011 (antibody, V domains shown, also called 85801_02O11A) VH: EVQLVESGGGLVQPGGSLRLSCAASGFTFSSYDMNWVRQAPGKGLEWISYINSRSSTIYYADSVKGRFTISRDNAKNSLYLQMNSLRDEDTALYYCAREIEDSMDVWGQGTTVTVSS VL: QSVLTQPPSVSAAPGQKVTISCSGSSSNIGNNYVSWYQQLPGTAPKLLIYDNNERPSGIPDRFSGSKSGTSATLGITGLQPGDEADYYCGTWDSSLSAGVFGGGTKLTVL | 114 |
| 85801_04G19 (antibody, V domains shown, also called 85801_04G19A) VH: QVQLQESGPGLVKPSETLSLTCTVSGGSISSYYWSWIRQSAGKELEWIGRIYTSGSTIYNPSLKSRVTMSVDPSKNQFSLKLSSVTAADTAVYYCANSRSYPHDAFDIWGQGTMVTVSS VL: DIQLTQSPSFLSASVGYRVTITCRASQGISSYLAWYQQKPGKAPQLLIYAASTLQSGVPSRFSGRGSGTEFTLTISSLQPEDFATYYCQQLNGYPFTFGPGTKVNIK | 262 |
| 85801_02K24 (antibody, V domains shown, also called 85801_02K24A) VH: QVQLQESGPGLVKPSETLSLTCTVSGGSISSYDWSWIRQSAGKGLEWIGRIYTSGSTIYNPSLKSRVTMSVDTSKNEISLKLSSVTAADTAFYYCAKDRGNYPHDAFDIWGQGTMITVSS VL: DIQLTQSPSFLSASVGDRVTITCRASQGISSFLAWYQQKPGKAPKLLIYAASTLQSGVPSRFSGSGSGTEFTLTISSLQPEDFATYYCQQLNGYPFTFGPGTKVDIK | 130 |
